Catalogue of % Emax cf. ACh, M3 values
Molecular target: human muscarinic M3 receptor (Homo sapiens)
Construct: expressed in transfected cells
Sequence (P20309 whole entry): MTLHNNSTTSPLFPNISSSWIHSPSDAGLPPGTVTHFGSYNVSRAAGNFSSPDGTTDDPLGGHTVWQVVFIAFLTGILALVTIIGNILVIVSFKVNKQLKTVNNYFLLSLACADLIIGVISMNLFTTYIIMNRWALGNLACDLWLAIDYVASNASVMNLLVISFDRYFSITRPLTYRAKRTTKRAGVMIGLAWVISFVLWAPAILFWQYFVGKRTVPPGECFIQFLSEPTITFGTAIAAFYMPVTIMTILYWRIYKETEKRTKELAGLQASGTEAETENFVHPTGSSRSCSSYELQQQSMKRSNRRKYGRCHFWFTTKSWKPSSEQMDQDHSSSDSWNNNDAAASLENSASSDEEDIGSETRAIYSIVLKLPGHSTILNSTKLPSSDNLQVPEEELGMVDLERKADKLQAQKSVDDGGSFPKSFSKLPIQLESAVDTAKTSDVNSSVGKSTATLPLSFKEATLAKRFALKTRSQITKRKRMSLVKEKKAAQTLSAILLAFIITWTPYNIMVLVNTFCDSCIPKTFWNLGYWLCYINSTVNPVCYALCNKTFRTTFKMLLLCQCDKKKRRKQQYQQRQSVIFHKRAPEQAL
Experiment: Alphascreen Surefire phospho-ERK1/2 functional assay, M3
Format: cell-based
Details: CHO cells stably expressing human M3; Emax relative to ACh
Quick reminder: number only, in %, skip the unit.

compound | % Emax cf. ACh, M3 (%)
CCOC(=O)N1C2COCC1CC(N1CCC3(CC1)OC(=O)NC3CC)C2 (single isomer, unassigned) [Example 5-4 Isomer 2b] | 4
CCOC(=O)N1C2COCC1CC(N1CCC(c3ccc[nH]c3=O)CC1)C2 (single isomer, unassigned) [Example 2-3 Isomer 2] | 5
CC(=O)OCC[N+](C)(C)C [ACh] | 115
CCOC(=O)N1C2COCC1CC(N1CCC(n3cc(Cl)cn3)CC1)C2 (single isomer, unassigned) [Example 1-2 Isomer 1] | 2

# next compound below
Q: Note % Emax cf. ACh, M3 for the compound shown: CCOC(=O)N1C2COCC1CC(N1CCC(c3cccnc3OC)CC1)C2 (single isomer, unassigned) [Example 2-2 Isomer 2]
Ans: 5

---

Biological target: human muscarinic M4 receptor (Homo sapiens, UniProt P08173)
Sequence (P08173 1-479): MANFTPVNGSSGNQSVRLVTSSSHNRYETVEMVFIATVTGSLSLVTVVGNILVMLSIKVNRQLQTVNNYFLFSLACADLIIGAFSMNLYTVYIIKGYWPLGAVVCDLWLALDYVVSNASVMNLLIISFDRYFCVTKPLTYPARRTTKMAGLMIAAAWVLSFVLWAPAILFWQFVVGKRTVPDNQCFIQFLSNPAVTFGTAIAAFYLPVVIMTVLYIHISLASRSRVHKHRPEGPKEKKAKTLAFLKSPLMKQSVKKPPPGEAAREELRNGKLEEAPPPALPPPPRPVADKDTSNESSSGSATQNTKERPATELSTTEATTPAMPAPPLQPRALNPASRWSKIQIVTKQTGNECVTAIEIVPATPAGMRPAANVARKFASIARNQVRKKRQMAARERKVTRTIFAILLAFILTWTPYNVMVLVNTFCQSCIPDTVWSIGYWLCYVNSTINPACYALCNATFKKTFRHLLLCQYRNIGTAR
Test: Alphascreen Surefire phospho-ERK1/2 functional assay, M4
Format: cell-based
Conditions: pEC50 M4, CHO cells stably expressing human M4; phospho-ERK1/2
Catalogue of pEC50 values
pEC50 is defined as minus the log10 of a concentration measured in mol/L.

Previously resolved entries follow.
molecule | system_under_test | pEC50
CCOC(=O)N1C2COCC1CC(N1CCC3(CC1)CC3)C2 (single isomer, unassigned) [Example 5-1 Isomer 2] | human muscarinic M4 receptor (Homo sapiens, UniProt P08173) | 7.47
CCOC(=O)N1C2COCC1CC(N1CCC3(CC1)C(=O)Nc1ccccc13)C2 (single isomer, unassigned) [Example 5-5 Isomer 2] | human muscarinic M4 receptor (Homo sapiens, UniProt P08173) | 8.07

Q: Note pEC50 for the molecule shown: CCOC(=O)N1C2COCC1CC(N1CCC(C(=O)NCC3CCC3)CC1)C2 (single isomer, unassigned) [Example 7-3 Isomer 1]
Ans: 6.56

Q: Note pEC50 for the molecule shown: CCOC(=O)N1C2COCC1CC(N1CCC(N(CC3(C)CCC3)C(C)=O)CC1)C2 (single isomer, unassigned) [Example 6-4 Isomer 2]
Ans: 6.69

Q: Note pEC50 for the molecule shown: CCOC(=O)N1C2COCC1CC(N1CCC(N(Cc3ccccc3)C(C)=O)CC1)C2 (single isomer, unassigned) [Example 6-5 Isomer 1]
Ans: 6.52

Q: Note pEC50 for the molecule shown: CCOC(=O)N1C2COCC1CC(N1CCC(N3CCCCCC3=O)CC1)C2 (single isomer, unassigned) [Example 6-7 Isomer 2]
Ans: 6.76

Q: Note pEC50 for the molecule shown: CCOC(=O)N1C2COCC1CC(N1CCC3(CC1)CNC(=O)C3)C2 (single isomer, unassigned) [Example 5-2 Isomer 1]
Ans: 6.52

Q: Note pEC50 for the molecule shown: CCOC(=O)N1C2COCC1CC(N1CCC(c3cccnc3OC)CC1)C2 (single isomer, unassigned) [Example 2-2 Isomer 2]
Ans: 6.95

Q: Note pEC50 for the molecule shown: CCOC(=O)N1C2COCC1CC(N1CCC(N(CC3(C)CC3)C(C)=O)CC1)C2 (single isomer, unassigned) [Example 6-3 Isomer 1]
Ans: 7.22

Q: Note pEC50 for the molecule shown: CCOC(=O)N1C2COCC1CC(N1CCC3(CC1)C(=O)Nc1ccccc13)C2 (single isomer, unassigned) [Example 5-5 Isomer 1]
Ans: 7.67

Q: Note pEC50 for the molecule shown: CCOC(=O)N1C2COCC1CC(N1CCC(c3ccc[nH]c3=O)CC1)C2 (single isomer, unassigned) [Example 2-3 Isomer 1]
Ans: 8.19

Q: Note pEC50 for the molecule shown: CCOC(=O)N1C2COCC1CC(N1CCC(C(=O)NCC(C)C)CC1)C2 (single isomer, unassigned) [Example 7-2 Isomer 1]
Ans: 6.34

Q: Note pEC50 for the molecule shown: CCOC(=O)N1C2COCC1CC(N1CCC(N3CC(F)(F)C[C@@H]3CO)CC1)C2 (single isomer, unassigned) [Example 4-1 Isomer 1]
Ans: 7.51
